- measured_on: T1, human programmed death 1 (hPD-1), extracellular region (amino acids 34-150) (human, UniProt Q15116 34-150)
- T1 construct: extracellular region of human PD-1, amino acids 34-150, cloned into pET28a between NcoI and NdeI sites; purification was by cation exchange and gel filtration; also called CD279
- experiment_summary: SPR; Biacore T200; hPD-1 immobilised on a CM5 chip by amine coupling (5000 RU); peptides or hPD-L1 injected 90 s, dissociation 120 s; PBS-P buffer pH 7.4, 25°C, 30 μl/min; steady-state model
- condition_set: both partners purified
reported_endpoint: pKd
# pKd: negative log10 of molar concentration; output just the value

Please review the following examples before continuing.
LDYDGRLSQ (peptide designed with anchor residues R113, A121, D122 and Y123 of hPD-L1; source: synthetic peptide (Fmoc solid-phase synthesis)) [Ar4_2]	4.08
LDYVNRRKMYQ (peptide designed with anchor residues R113, M115, A121, D122 and Y123 of hPD-L1; source: synthetic peptide (Fmoc solid-phase synthesis)) [Ar5M_2]	5.48

// moving on: another record for pKd
Read off the recorded pKd for GIDYEERWK (peptide designed with anchor residues R113, A121, D122 and Y123 of hPD-L1; source: synthetic peptide (Fmoc solid-phase synthesis)) [Ar4_1]
4.55
